Target: T1, 4H2717-bN
T1 chain: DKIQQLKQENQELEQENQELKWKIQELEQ
Assay: two-hybrid library CCNG1;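 also: natural log of median RNA to DNA barcode read ratio; higher means stronger binding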
PROPERTY: interaction score

| BINDER | PROPERTY | NUMERIC_RESULT |
| --- | --- | --- |
| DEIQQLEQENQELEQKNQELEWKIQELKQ [4H182-bN] | interaction score | 0.137 |

[P] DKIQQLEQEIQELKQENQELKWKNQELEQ [4H2143-bN]
[Q] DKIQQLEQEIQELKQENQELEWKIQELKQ [4H2134-bN]
Input pair: P , Q . Output: entry with lower interaction score. # answer = label of selected item
Q
